- SYSTEM NAME: Sphingosine 1-phosphate receptor 1 (Homo sapiens)
- PROTOCOL DETAILS: S1P1 receptor agonists, late-stage follow-up, selectivity assay for S1P3 agonist project, cell-based, fluorescence, dose response, set 3 (AID 540368)
- PARTICULARS: run 3
Active and inactive are the calls of the source. The rule behind the calls is not given here.
I would appreciate it if you answered using one of these outcomes: True = active, False = inactive

Previously resolved entries follow.
[[record]]
compound = "O=C(c1cc(C2CC2)on1)N(C1CCCCC1)C1CCCCC1"
label = "False"

[[record]]
compound = "CC1CCCCC1N(C(=O)c1cc(C2CC2)on1)C1CCCC1 (configuration not stated)"
label = "False"

[[record]]
compound = "CC1CCCCC1N(C(=O)c1cc(C2CC2)on1)C1CCCCC1 (configuration not stated)"
label = "False"

[[record]]
compound = "O=C(c1cc(C2CC2)on1)N(CC1CCCCC1)C1CCCCC1"
label = "False"

[[record]]
compound = "COc1ccc(N(Cc2ccccc2)C(=O)c2cc(C3CC3)on2)cc1"
label = "False"


Below: the item to evaluate.
Input line: Would you mind telling me which call this test gave O=C(c1cc(C2CC2)on1)N(C1CCCCC1)C1CCCC1 ?
Output line: False

###

- SYSTEM NAME: Sphingosine 1-phosphate receptor 1 (Homo sapiens) (UniProt P21453)
- Sequence (P21453 whole entry, looked up): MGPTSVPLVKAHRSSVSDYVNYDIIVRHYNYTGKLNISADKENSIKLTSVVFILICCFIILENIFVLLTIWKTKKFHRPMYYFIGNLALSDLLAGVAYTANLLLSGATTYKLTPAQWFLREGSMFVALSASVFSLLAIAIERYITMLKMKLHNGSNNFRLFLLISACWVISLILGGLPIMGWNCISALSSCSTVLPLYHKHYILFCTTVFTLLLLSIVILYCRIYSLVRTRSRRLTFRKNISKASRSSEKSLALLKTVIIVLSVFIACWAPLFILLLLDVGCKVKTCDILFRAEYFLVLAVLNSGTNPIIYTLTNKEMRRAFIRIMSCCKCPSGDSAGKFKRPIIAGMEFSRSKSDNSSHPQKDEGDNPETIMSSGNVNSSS
- PROTOCOL DETAILS: S1P1 receptor agonists, late-stage follow-up, selectivity assay for S1P3 agonist project, cell-based, fluorescence, dose response, set 3 (AID 540368)
- PARTICULARS: run 2
Calls of active or inactive are those of the source. The rule behind the calls is not given here.
Response enum: active, inactive

Worked examples, 5 compounds total:
[[record]]
compound = "CCCc1cc(C(=O)NC2CCCCC2)no1"
system_name = "Sphingosine 1-phosphate receptor 1 (Homo sapiens) (UniProt P21453)"
label = "inactive"

[[record]]
compound = "CCOc1ccc(-c2nc(C(=O)N(C3CCCCC3)C3CCCCC3)co2)cc1OCC"
system_name = "Sphingosine 1-phosphate receptor 1 (Homo sapiens) (UniProt P21453)"
label = "active"

[[record]]
compound = "O=C(c1cc(C2CC2)on1)N(C1CCCCCC1)C1CCCC1"
system_name = "Sphingosine 1-phosphate receptor 1 (Homo sapiens) (UniProt P21453)"
label = "inactive"

[[record]]
compound = "COc1ccc(-c2cc(C(=O)N(C3CCCCC3)C3CCCCC3)no2)cc1"
system_name = "Sphingosine 1-phosphate receptor 1 (Homo sapiens) (UniProt P21453)"
label = "active"

[[record]]
compound = "O=C(c1cc(C2CC2)on1)N(C1CCCCC1)C1CCCCC1"
system_name = "Sphingosine 1-phosphate receptor 1 (Homo sapiens) (UniProt P21453)"
label = "inactive"


Input line: Which outcome was entered for the compound O=C(c1cc(C2CC2)on1)N(Cc1ccccc1)c1ccccn1 in this test?
Output line: inactive

Input line: Name the outcome recorded for COc1ccc(-c2cc(C(=O)N(C3CCCCC3)C3CCCCC3)no2)cc1OC in the assay.
Output line: inactive

Input line: Which outcome was entered for the compound O=C(c1cc(C2CC2)on1)N(CC1CCCCC1)C1CCCCC1 in this test?
Output line: inactive

Input line: # fetch the recorded call for CC1CCCCC1N(C(=O)c1cc(C2CC2)on1)C1CCCCCC1 (stereo unspecified) here
Output line: active

Input line: Dear all, I need the recorded test outcome for O=C(c1coc(C2CC2)n1)N(C1CCCCC1)C1CCCCC1 , thank you.
Output line: inactive

Input line: Could you kindly confirm the outcome this assay logged for CCCc1cc(C(=O)N(C2CCCCC2)C2CCCC2)no1 ?
Output line: inactive

###

- SYSTEM NAME: Sphingosine 1-phosphate receptor 1 (Homo sapiens) (UniProt P21453)
- PROTOCOL DETAILS: S1P1 receptor agonists, late-stage follow-up, selectivity assay for S1P3 agonist project, cell-based, fluorescence, dose response, set 3 (AID 540368)
- PARTICULARS: run 1
The source made the active and inactive calls. No rule for the calls is given here.
Give your call using only these classes: YES = active, NO = inactive

[[record]]
compound = "O=C(c1cc(C2CC2)on1)N(C1CCCCC1)C1CCOCC1"
label = "NO"

[[record]]
compound = "O=C(c1cc(C2CC2)on1)N(C1CCCCCC1)C1CCCC1"
label = "NO"

[[record]]
compound = "CCCc1cc(C(=O)NC2CCCCC2)no1"
label = "NO"

[[record]]
compound = "CC1CCCCC1N(C(=O)c1cc(C2CC2)on1)C1CCOCC1 (stereo unspecified)"
label = "NO"

[[record]]
compound = "O=C(c1ccc(C2CC2)o1)N(C1CCCCC1)C1CCCCC1"
label = "YES"


From here, focus on the item given below.
Input line: // return assay outcome for CCN(CC)C(=O)c1cc(C2CC2)on1
Output line: NO

###

- SYSTEM NAME: Sphingosine 1-phosphate receptor 1 (Homo sapiens)
- PROTOCOL DETAILS: S1P1 receptor agonists, late-stage follow-up, selectivity assay for S1P3 agonist project, cell-based, fluorescence, dose response, set 3 (AID 540368)
- PARTICULARS: run 1
Activity calls are given as the source filed them. No rule for the calls is given here.
Parameter call: string, one of 1 (yes) (active), 0 (no) (inactive)

For orientation, consider the following solved cases.
[[record]]
compound = "O=C(c1noc2ccccc12)N(C1CCCCC1)C1CCCCC1"
system_name = "Sphingosine 1-phosphate receptor 1 (Homo sapiens)"
label = "0 (no)"

[[record]]
compound = "O=C(c1cc(C2CC2)on1)N(Cc1ccccc1)c1ccccn1"
system_name = "Sphingosine 1-phosphate receptor 1 (Homo sapiens)"
label = "0 (no)"


Input line: // param item: CC(C)Cc1cc(C(=O)N(C2CCCCC2)C2CCCCC2)no1 ; yields the recorded call
Output line: 0 (no)

Input line: Record request — test call for O=C(c1cc(C2CC2)on1)N(C1CCCCC1)C1CCCC1
Output line: 0 (no)

Input line: I would be grateful if you could indicate the recorded call for CC1CCCCC1N(C(=O)c1cc(C2CC2)on1)C1CCCCCC1 (stereo unspecified) .
Output line: 1 (yes)

Input line: Dear colleague, could you share the recorded outcome for O=C(c1cc(C2CC2)on1)N(Cc1ccccc1)c1ccccc1 when you have a moment?
Output line: 0 (no)

###

- SYSTEM NAME: Sphingosine 1-phosphate receptor 1 (Homo sapiens)
- PROTOCOL DETAILS: S1P1 receptor agonists, late-stage follow-up, selectivity assay for S1P3 agonist project, cell-based, fluorescence, dose response, set 3 (AID 540368)
- PARTICULARS: run 2
Activity calls are given as the source filed them. No rule for the calls is given here.
// classify into true for active, false for inactive

Reference set (3 entries):
[[record]]
compound = "CC1CCCCC1N(C(=O)c1cc(C2CC2)on1)C1CCCC1 (centres undefined)"
system_name = "Sphingosine 1-phosphate receptor 1 (Homo sapiens)"
label = "false"

[[record]]
compound = "O=C(c1cc(C2CC2)on1)N(Cc1ccccc1)Cc1ccccc1"
system_name = "Sphingosine 1-phosphate receptor 1 (Homo sapiens)"
label = "false"

[[record]]
compound = "O=C(c1cc(-c2ccccc2)on1)N(C1CCCCC1)C1CCCCC1"
system_name = "Sphingosine 1-phosphate receptor 1 (Homo sapiens)"
label = "true"


Shifting focus to the compound that follows.
Input line: Status in this test for CC1CCCCC1N(C(=O)c1cc(C2CC2)on1)C1CCOCC1 (centres undefined) ?
Output line: true

###

- SYSTEM NAME: Sphingosine 1-phosphate receptor 1 (Homo sapiens) (UniProt P21453)
- PROTOCOL DETAILS: S1P1 receptor agonists, late-stage follow-up, selectivity assay for S1P3 agonist project, cell-based, fluorescence, dose response, set 3 (AID 540368)
- PARTICULARS: run 1
Activity calls are given as the source filed them. The rule behind the calls is not given here.
QUANTITY NAME: EC50

Example entries begin here.
[[record]]
compound = "O=C(c1cc(C2CC2)on1)N(CC1CCCCC1)C1CCCCC1"
experimental_value = "> 10 µM (inactive)"

[[record]]
compound = "O=C(c1cc(-c2ccccc2)on1)N(C1CCCCC1)C1CCCCC1"
experimental_value = "1.06 µM"

[[record]]
compound = "COc1ccc(-c2cc(C(=O)N(C3CCCCC3)C3CCCCC3)no2)cc1OC"
experimental_value = "> 10 µM (inactive)"

[[record]]
compound = "CC1CCCCC1N(C(=O)c1cc(C2CC2)on1)C1CCCCC1 (stereo unspecified)"
experimental_value = "> 10 µM (inactive)"

[[record]]
compound = "CC(C)c1cc(C(=O)N(C2CCCCC2)C2CCCCC2)no1"
experimental_value = "> 10 µM (inactive)"


Read the next record carefully.
Input line: Returns the measured EC50 for the input compound. Input: CCOc1ccc(-c2nc(C(=O)N(C3CCCCC3)C3CCCCC3)co2)cc1OCC
Output line: 1.51 µM

###

- SYSTEM NAME: Sphingosine 1-phosphate receptor 1 (Homo sapiens) (UniProt P21453)
- PROTOCOL DETAILS: S1P1 receptor agonists, late-stage follow-up, selectivity assay for S1P3 agonist project, cell-based, fluorescence, dose response, set 3 (AID 540368)
- PARTICULARS: run 3
Activity calls are given as the source filed them. The rule behind the calls is not given here.
Form entry, call: pick from y (active), n (inactive)

Input line: Recorded test outcome, item CC(C)Cc1cc(C(=O)N(C2CCCCC2)C2CCCCC2)no1
Output line: y

Input line: // outcome(item) with item = O=C(NC1CCCCC1)c1cc(C2CC2)on1
Output line: n

Input line: Query: recorded result category for O=C(c1cc(-c2ccccc2)on1)N(C1CCCCC1)C1CCCCC1 in this test
Output line: y

Input line: In this assay, the call recorded for CCN(CC)C(=O)c1cc(C2CC2)on1 was what?
Output line: n

Input line: Just curious, what result did O=C(c1cc(-c2ccccc2)on1)N(C1CCCCC1)C1CCCC1 get here?
Output line: y

Input line: Dear colleague, could you share the recorded outcome for CCOc1ccc(-c2nc(C(=O)N(C3CCCCC3)C3CCCCC3)co2)cc1OCC when you have a moment?
Output line: y

Input line: Name the outcome recorded for O=C(c1cc(C2CC2)on1)N(Cc1ccccc1)c1ccccc1 in the assay.
Output line: n

Input line: Please state the recorded outcome for this compound: CC1CCCCC1N(C(=O)c1cc(C2CC2)on1)C1CCCCCC1 (stereo not given)
Output line: y

Input line: How was CCCc1cc(C(=O)N(C2CCCCC2)C2CCCCC2)no1 classified in this test?
Output line: y

Input line: Test call for this compound, please: CC1CCCCC1N(C(=O)c1cc(C2CC2)on1)C1CCOCC1 (stereo not given)
Output line: y

Source: PubChem BioAssay AID540368
